Target: T1, hCSF1R ECD.506 (human, UniProt P07333 20-506)
T1 construct: also called human CSF1R ECD
T1 sequence (P07333 20-506): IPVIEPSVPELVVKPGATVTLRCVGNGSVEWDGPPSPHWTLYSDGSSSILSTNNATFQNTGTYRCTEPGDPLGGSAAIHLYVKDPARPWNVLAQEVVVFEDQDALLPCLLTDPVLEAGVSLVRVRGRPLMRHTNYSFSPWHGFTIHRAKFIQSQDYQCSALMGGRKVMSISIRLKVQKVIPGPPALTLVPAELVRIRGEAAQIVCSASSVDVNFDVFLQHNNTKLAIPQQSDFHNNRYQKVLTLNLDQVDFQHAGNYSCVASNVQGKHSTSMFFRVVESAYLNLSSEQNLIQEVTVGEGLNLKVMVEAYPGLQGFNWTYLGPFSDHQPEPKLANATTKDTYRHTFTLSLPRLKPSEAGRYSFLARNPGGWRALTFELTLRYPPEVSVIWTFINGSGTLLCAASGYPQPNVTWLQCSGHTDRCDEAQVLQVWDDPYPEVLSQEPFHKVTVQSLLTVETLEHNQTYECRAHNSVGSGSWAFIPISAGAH
Experiment: SPR Biacore T100, antibody captured on anti-human IgG, hCSF1R ECD.506 as analyte, 1:1 model
REPORTED METRIC: pKd
Kindly note that pKd refers to -log10 of the concentration in mol/L and answer with the value alone.

The cases that follow already have their pKd on record.
# BINDER, pKd
measured = [
    ("h0302-L1H2 (antibody, human IgG4 S228P, kappa, V domains shown, also called Ab11; huAb 0302-L1H2) VH: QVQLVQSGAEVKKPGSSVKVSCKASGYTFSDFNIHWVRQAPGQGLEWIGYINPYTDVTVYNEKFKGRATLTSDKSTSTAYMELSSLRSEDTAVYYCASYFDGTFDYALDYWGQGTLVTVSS VL: EIVLTQSPATLSLSPGERATLSCRASESVDNYGLSFMNWYQQKPGQAPRLLIYTASNLESGIPARFSGSGSRTDFTLTISSLEPEDFAVYYCQQSKELPWTFGQGTKVEIKR", 9.25),
    ("h0311-L0H2 (antibody, human IgG4 S228P, kappa, V domains shown, also called Ab15; huAb 0311-L0H2) VH: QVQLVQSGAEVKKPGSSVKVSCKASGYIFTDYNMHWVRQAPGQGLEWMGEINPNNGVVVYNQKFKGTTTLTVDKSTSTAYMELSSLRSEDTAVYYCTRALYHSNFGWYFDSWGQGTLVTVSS VL: EIVLTQSPATLSLSPGERATLSCKASQSVDYDGDSHMNWYQQKPGQAPRLLIYTASNLESGIPARFSGSGSGTDFTLTISSLEPEDFAVYYCQQGNEDPWTFGQGTKVEIKR", 9.46),
]

Moving on to the next binder.
Could you please provide reported pKd for h0302-L1H1 (antibody, human IgG4 S228P, kappa, V domains shown, also called Ab8; huAb 0302-L1H1) VH: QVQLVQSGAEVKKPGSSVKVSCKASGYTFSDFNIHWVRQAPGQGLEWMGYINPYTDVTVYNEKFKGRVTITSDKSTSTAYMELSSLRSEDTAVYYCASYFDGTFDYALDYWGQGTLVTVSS VL: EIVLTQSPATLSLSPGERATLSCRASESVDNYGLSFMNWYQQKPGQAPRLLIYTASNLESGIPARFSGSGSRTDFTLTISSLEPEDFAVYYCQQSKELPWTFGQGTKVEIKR ? Thanks! 8.93
